test system: BT474 (human breast carcinoma); experiment: In vitro tumor cell proliferation assay (Cell Titer-Glo luminescent cell viability), BT474; assay type: cell-based; conditions: BT-474, 72 h, BT474 cells, 72 hours of drug exposure, ATP luminescence readout, read-out: IC50, anti-proliferative activity (inhibition of cell proliferation)
pIC50: −log10 of the molar value. Counter-ions that a name gives are not always drawn.
In this section, each of the molecules is paired with its reported pIC50.
quantityName: pIC50

• Fc1cccc(COc2ccc(Nc3ncnc4sc5c(c34)CCc3c-5cnn3CCn3ccnc3)cc2Cl)c1 = ≥ 6.00
• COCCN(C)CCn1ncc2c1CCc1c-2sc2ncnc(Nc3ccc(OCc4cccc(F)c4)c(Cl)c3)c12 = ≥ 6.00
• CS(=O)(=O)CCNC(=O)Cn1ncc2c1CCc1c-2sc2ncnc(Nc3ccc(OCc4cccc(F)c4)c(Cl)c3)c12 = ≥ 6.00
• Clc1cc(Nc2ncnc3sc4c(c23)CCc2c-4cnn2CCN2CCOCC2)ccc1OCc1ccccn1 = ≥ 6.00
• OCC(O)CN1CCC(CCn2cc3c(n2)CCc2c-3sc3ncnc(Nc4ccc(OCc5cccc(F)c5)c(Cl)c4)c23)CC1 (centres unmarked) = ≥ 6.00
• CCNC[C@@H](O)Cn1ncc2c1CCc1c-2sc2ncnc(Nc3ccc(OCc4cccc(F)c4)c(Cl)c3)c12 [Example 169, trifluoroacetate] = ≥ 6.00
• CCNCCn1cc2c(n1)CCc1c-2sc2ncnc(Nc3ccc(OCc4ccccn4)c(Cl)c3)c12 = ≥ 6.00
• Fc1ccc(Nc2ncnc3sc4c(c23)CCc2c-4cnn2CCn2ccnc2)cc1Cl = ≥ 5.30
• Fc1ccc(Nc2ncnc3sc4c(c23)CCc2c-4cnn2CCN2CCNCC2)cc1Cl = ≥ 5.30
• CN(C)[C@@H]1CCN(CC(=O)N2CCC(Cn3cc4c(n3)CCc3c-4sc4ncnc(Nc5ccc(OCc6cccc(F)c6)c(Cl)c5)c34)CC2)C1 [Example 234, trifluoroacetate] = ≥ 5.30
• Fc1ccc(Nc2ncnc3sc4c(c23)CCc2nn(CCNCCN3CCOCC3)cc2-4)cc1Cl = ≥ 6.00
• CCCN(CCOC)CCn1cc2c(n1)CCc1c-2sc2ncnc(Nc3ccc(F)c(Cl)c3)c12 = ≥ 5.30
• O=C(Cn1ncc2c1CCc1c-2sc2ncnc(Nc3ccc(OCc4cccc(F)c4)c(Cl)c3)c12)NCCN1CCOCC1 = ≥ 6.00
• COCCn1cc2c(n1)CCc1c-2sc2ncnc(Nc3ccc(OCc4cccc(F)c4)c(Cl)c3)c12 = ≥ 5.30
• OCCNCCn1cc2c(n1)CCc1c-2sc2ncnc(Nc3ccc(F)c(Cl)c3)c12 = ≥ 5.30
• CS(=O)(=O)OCCn1ncc2c1CCc1c-2sc2ncnc(Nc3ccc(OCc4cccc(F)c4)c(Cl)c3)c12 = ≥ 6.00
• OC(CN1CCOCC1)Cn1cc2c(n1)CCc1c-2sc2ncnc(Nc3ccc(OCc4cccc(F)c4)c(Cl)c3)c12 (centres unmarked) = ≥ 6.00
• CC(C)(C)OC(=O)N1CCC(Cn2cc3c(n2)CCc2c-3sc3ncnc(Nc4ccc(OCc5cccc(F)c5)c(Cl)c4)c23)CC1 = ≥ 5.30
• O=C(Cn1cc2c(n1)CCc1c-2sc2ncnc(Nc3ccc(OCc4cccc(F)c4)c(Cl)c3)c12)NCCO = ≥ 6.00
• CN1CCN(CCn2cc3c(n2)CCc2c-3sc3ncnc(Nc4ccc(Oc5cccnc5)c(F)c4)c23)CC1 = ≥ 5.30
• O[C@H]1CCN(CCn2cc3c(n2)CCc2c-3sc3ncnc(Nc4ccc(F)c(Cl)c4)c23)C1 = ≥ 5.30
• CS(=O)(=O)CCNCCn1ncc2c1CCc1c-2sc2ncnc(Nc3ccc(F)c(Cl)c3)c12 = ≥ 5.30
• Cc1cc(Oc2ccc(Nc3ncnc4sc5c(c34)CCc3nn(CCN4CCN(C)CC4)cc3-5)c(F)c2)ccn1 = ≥ 5.30
• CN1CCN(CCn2ncc3c2CCc2c-3sc3ncnc(Nc4ccc5c(cnn5Cc5cccc(F)c5)c4)c23)CC1 = ≥ 6.00
• CS(=O)(=O)CCNCCn1ncc2c1CCc1c-2sc2ncnc(Nc3ccc(OCc4cccc(F)c4)c(Cl)c3)c12 = ≥ 6.00
• CN(C)[C@@H]1CCN(CCn2cc3c(n2)CCc2c-3sc3ncnc(Nc4ccc(F)c(Cl)c4)c23)C1 = ≥ 5.30
• CC(C)CNC[C@@H](O)Cn1cc2c(n1)CCc1c-2sc2ncnc(Nc3ccc(OCc4cccc(F)c4)c(Cl)c3)c12 [Example 161, trifluoroacetate] = ≥ 5.30
• Fc1cccc(COc2ccc(Nc3ncnc4sc5c(c34)CCc3c-5cnn3CCCN3CCCCC3)cc2Cl)c1 = ≥ 6.00
• OCC(CO)N1CCC(CCn2cc3c(n2)CCc2c-3sc3ncnc(Nc4ccc(OCc5cccc(F)c5)c(Cl)c4)c23)CC1 = ≥ 6.00
